Where do these numbers come from? They come from paper PMC8557474.

PROCEDURE_DETAILS: physchem
MEASUREMENT_CONDITIONS: aqueous buffer, kinetic from dmso stock, Solubility in medium, Lab 1, assay medium, Lab 1
REPORTED_PROPERTY: solubility (µg/mL)
Entry rule: numbers only, all in µg/mL.

Before answering, review these 3 worked examples.
COMPOUND | solubility [µg/mL]
C[C@]12Cc3c[nH]nc3C[C@@H]1CC[C@@H]1[C@@H]2CC[C@@]2(C)[C@H]1CC[C@]2(C)O [Stanozolol] | 5
C=CC1(C)OC(=O)N(c2cc(Cl)cc(Cl)c2)C1=O (centres unmarked) [Vinclozolin] | 5
C[C@]1(O)CC[C@H]2[C@@H]3CCC4=CC(=O)CC[C@]4(C)[C@@]3(F)[C@@H](O)C[C@@]21C [Fluoxymesterone] | 5

In: Given CCN(CC)C(=S)SSC(=S)N(CC)CC [Disulfiram] , state its recorded solubility.
Out: 5

In: Given CCCCOC(=O)c1ccccc1C(=O)OCc1ccccc1 [Benzylbutyl phthalate] , state its recorded solubility.
Out: 1.5
